# systemUnderTest: CRBN/DDB1 complex (Homo sapiens)
# Construct: WT full length CRBN/DDB1 complex was added
# Sequence (Q96SW2 whole entry): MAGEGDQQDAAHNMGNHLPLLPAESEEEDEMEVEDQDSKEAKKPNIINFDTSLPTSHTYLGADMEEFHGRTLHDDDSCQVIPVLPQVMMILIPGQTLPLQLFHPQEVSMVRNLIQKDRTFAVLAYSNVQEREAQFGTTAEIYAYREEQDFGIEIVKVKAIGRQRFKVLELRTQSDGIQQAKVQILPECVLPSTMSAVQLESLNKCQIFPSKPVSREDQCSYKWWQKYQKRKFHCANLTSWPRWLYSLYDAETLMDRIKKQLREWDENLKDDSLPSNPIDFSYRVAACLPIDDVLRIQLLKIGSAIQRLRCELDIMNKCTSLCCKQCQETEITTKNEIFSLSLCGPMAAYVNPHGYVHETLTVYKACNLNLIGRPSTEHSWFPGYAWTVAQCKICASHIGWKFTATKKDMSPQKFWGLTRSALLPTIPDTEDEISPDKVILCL
# Sequence (Q16531 whole entry partner): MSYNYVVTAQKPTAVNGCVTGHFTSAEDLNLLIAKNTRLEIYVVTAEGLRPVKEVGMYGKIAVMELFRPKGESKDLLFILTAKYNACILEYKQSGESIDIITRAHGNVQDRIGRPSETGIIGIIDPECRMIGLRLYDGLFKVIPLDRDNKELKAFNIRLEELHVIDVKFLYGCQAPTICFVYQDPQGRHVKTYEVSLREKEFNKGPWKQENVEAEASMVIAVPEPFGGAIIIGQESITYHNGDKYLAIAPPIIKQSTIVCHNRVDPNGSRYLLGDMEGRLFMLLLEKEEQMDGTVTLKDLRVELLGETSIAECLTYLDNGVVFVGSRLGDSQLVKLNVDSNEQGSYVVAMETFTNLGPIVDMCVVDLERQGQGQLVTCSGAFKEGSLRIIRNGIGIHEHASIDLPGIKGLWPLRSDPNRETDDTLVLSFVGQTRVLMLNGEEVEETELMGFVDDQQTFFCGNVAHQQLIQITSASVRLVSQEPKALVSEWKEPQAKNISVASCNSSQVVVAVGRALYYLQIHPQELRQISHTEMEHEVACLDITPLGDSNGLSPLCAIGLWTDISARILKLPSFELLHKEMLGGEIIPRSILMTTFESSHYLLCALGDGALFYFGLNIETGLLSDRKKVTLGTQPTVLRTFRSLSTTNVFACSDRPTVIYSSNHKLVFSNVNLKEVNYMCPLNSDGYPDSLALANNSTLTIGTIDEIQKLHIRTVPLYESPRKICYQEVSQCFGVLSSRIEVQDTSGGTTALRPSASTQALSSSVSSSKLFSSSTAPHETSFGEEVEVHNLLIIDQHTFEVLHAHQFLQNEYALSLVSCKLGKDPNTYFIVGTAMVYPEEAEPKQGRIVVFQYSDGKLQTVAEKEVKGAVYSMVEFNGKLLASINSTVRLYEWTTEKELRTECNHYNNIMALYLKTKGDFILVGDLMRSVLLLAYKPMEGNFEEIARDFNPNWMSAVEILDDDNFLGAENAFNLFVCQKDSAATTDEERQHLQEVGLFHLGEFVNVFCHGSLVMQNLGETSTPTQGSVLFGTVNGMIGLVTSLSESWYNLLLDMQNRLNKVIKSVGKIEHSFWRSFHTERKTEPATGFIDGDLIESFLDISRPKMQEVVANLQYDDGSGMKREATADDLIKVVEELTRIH
# methodNotes: IMiD-based fluorescence polarisation assay
# conditionsUsed: displacement of Sulfo-Cy5 IMiD probe (5 nM), 80 nM CRBN/DDB1; read-out: FP IC50
parameterMeasured: pIC50
pIC50 is a log-scale quantity: -log10 of the concentration expressed in molar.

Look at this compound and give its reported pIC50. Cc1ccc(NC(=O)NCc2ccc3c(c2)CN(C2CCC(=O)NC2=O)C3=O)cc1Cl (stereo not shown) [CC885] 6.97
